# target or system: factor D (Homo sapiens, UniProt P00746)
# Construct: made in house; host or cells: E. coli
# Sequence (P00746 26-253): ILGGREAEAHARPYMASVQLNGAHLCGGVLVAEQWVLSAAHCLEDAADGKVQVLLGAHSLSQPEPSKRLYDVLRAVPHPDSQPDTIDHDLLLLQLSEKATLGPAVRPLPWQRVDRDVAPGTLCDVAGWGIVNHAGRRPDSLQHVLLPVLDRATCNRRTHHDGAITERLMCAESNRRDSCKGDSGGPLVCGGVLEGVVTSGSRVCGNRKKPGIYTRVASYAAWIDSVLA
# measurement protocol: factor D inhibition assay of Biological Example 2
# Type: biochemical
Quick reference for IC50 among some compounds
Give just the numeric value; nM need not be written.

Problem: Name the reported IC50 value associated with the compound N[C@@H](CF)c1cccc(-c2cc(COc3ccccc3CC(=O)O)cc(NCC3CC3)c2)c1F
Result: 56

Problem: Which IC50 value belongs to C[C@@H](N)c1cccc(-c2cc(COc3ccccc3CC(=O)O)c3c(c2)OCO3)c1 ?
Result: 32

Problem: Field request: IC50 | item: N#Cc1ccc(OCc2cccc(-c3cccc(CN)c3)c2)c(CC(=O)O)c1
Result: 70

Problem: Need IC50, item Cc1ccc(COc2ccccc2CC(=O)O)cc1-c1cccc(CN)c1F
Result: 44

Problem: Can you share its IC50? I mean this compound: CC(O)c1cc(COc2ccccc2CC(=O)O)cc(-c2cccc([C@@H](C)N)c2F)c1 (stereo partly drawn)
Result: 8

Problem: Which measured IC50 value corresponds to COC(C)c1cc(COc2ccccc2CC(=O)O)cc(-c2cccc([C@H](N)CF)c2)c1 (mixture of isomers) ?
Result: 380
